Examples of compounds with documented BAF3-FGFR3 (MIN IL3) pIC50 follow.
Measured on: Ba/F3-FGFR3-transfected cells (Homo sapiens)
Construct: BAF3-FGFR3 (MIN IL3) pIC50; other: minus IL3
Sequence (P22607 whole entry, change not shown): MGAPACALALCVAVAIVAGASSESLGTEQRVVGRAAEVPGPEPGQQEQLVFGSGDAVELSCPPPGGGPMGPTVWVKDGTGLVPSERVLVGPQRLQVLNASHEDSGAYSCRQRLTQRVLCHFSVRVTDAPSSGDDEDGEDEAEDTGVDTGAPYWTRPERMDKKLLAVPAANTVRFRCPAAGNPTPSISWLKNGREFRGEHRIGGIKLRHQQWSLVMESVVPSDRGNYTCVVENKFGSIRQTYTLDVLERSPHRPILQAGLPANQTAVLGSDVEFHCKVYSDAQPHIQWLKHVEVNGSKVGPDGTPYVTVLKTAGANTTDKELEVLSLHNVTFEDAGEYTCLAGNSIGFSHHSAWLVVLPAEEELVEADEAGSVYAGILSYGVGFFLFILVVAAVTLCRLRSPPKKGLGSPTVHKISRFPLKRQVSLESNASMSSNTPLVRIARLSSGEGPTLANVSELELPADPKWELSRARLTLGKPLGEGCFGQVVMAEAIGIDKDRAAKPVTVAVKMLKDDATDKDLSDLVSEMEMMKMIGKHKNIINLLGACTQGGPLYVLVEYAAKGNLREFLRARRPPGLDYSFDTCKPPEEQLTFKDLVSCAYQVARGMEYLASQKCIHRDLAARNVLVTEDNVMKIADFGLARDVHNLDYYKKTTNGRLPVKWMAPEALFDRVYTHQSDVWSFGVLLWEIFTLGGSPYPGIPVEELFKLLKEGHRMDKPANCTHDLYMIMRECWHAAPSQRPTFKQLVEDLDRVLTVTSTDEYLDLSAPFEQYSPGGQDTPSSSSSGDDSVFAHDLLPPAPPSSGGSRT
Experiment notes: Ba/F3-FGFR3 (minus IL3) cellular proliferation assay, Alamar Blue
Type: cell-based
Write the number on its own, no unit after it.

These solved cases illustrate the format of a correct answer.
INSERT INTO assay_data (compound, measured) VALUES
  ('COc1ccc(Cl)c(N(CC2CCC(=O)N2)c2ccc3ncc(-c4cnn(C)c4)nc3n2)c1Cl (single isomer, unassigned) [Compound 91]', 5.17),
  ('CNCCn1/c(=N/c2c(F)ccc(OC)c2Cl)ccc2ncc(-c3cnn(C)c3)nc21', 6.31),
  ('COc1cc(/N=c2\ccc3ncc(-c4cnn(C)c4)nc3n2CC2CCC(=O)N2C)c(F)c(OC)c1 (stereo not shown) [Compound 158]', 7.20),
  ('COc1cc(OC)c(F)c(/N=c2\ccc3ncc(-c4cnn(C)c4)nc3n2C)c1F (single isomer, unassigned)', 8.38),
  ('COc1cc(OC)c(F)c(N(Cc2nc[nH]n2)c2ccc3ncc(-c4cnn(C)c4)nc3n2)c1F', 8.14);

Query compound follows.
Request: Endpoint output: BAF3-FGFR3 (MIN IL3) pIC50 of COc1cc(OC)c(F)c(N(CC(=O)c2cnn(C)c2)c2ccc3ncc(-c4cnn(C)c4)nc3n2)c1 . Value?
Result: 6.29

----------
// IC50 lookup, one value per entry
Measured on: FGFR3 (h) (Homo sapiens)
Sequence (P22607 23-806): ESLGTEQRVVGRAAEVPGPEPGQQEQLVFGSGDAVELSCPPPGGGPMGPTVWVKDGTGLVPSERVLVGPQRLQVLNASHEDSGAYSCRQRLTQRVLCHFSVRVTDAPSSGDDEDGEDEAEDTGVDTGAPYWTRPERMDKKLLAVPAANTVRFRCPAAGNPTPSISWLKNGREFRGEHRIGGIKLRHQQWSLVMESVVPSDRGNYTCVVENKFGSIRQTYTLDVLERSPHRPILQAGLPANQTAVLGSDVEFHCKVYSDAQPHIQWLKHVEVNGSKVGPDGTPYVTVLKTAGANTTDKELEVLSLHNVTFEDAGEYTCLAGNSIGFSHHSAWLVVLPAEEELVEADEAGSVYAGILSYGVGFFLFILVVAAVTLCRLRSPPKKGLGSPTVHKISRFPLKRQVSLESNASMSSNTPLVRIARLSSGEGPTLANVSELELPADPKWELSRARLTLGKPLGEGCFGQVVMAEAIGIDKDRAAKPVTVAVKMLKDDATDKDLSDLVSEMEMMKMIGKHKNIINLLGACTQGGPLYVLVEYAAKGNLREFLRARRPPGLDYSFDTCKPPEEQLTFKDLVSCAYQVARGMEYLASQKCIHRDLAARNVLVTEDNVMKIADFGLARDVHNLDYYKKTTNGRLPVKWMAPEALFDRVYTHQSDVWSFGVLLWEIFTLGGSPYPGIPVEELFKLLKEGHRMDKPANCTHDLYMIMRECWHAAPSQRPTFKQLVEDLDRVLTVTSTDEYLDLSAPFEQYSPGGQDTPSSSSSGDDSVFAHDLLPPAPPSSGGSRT
Experiment notes: FGFR3 (enzymatic assay), TR-FRET
Assay type: biochemical
Test context: read-out: FGFR 3 pIC50 (converted)
Give the number; nM is assumed, so skip it.

INSERT INTO results (molecule, experimental_readout, unit_name, measured) VALUES
  ('COc1cc(OC)cc(N(Cc2ncc[nH]2)c2ccc3ncc(-c4cnn(C5CCNCC5)c4)nc3n2)c1', 'IC50', 'nM', 0.891),
  ('COc1cc(OC)cc(N(CC2COC2)c2ccc3ncc(-c4cnn(C)c4)nc3n2)c1', 'IC50', 'nM', 5.75),
  ('COc1cc(OC)c(F)c(N(Cc2ncc[nH]2)c2ccc3ncc(-c4cnn(CCS(C)(=O)=O)c4)nc3n2)c1', 'IC50', 'nM', 1.41),
  ('COc1cc(OC)c(F)c(N(CCN)c2ccc3ncc(-c4cnn(C)c4)nc3n2)c1', 'IC50', 'nM', 3.16),
  ('CNCCn1/c(=N/c2c(F)c(OC)cc(OC)c2F)ccc2ncc(-c3cn[nH]c3)nc21', 'IC50', 'nM', 1);

Request: Please give the measured IC50 for this molecule: COc1cc(OC)cc(N(CC2CC(O)C(=O)N2)c2ccc3ncc(-c4cnn(C)c4)nc3n2)c1 (stereo not drawn)
Result: 2.45

Request: Now consider COc1cc(OC)c(F)c(N(Cc2cn[nH]c2)c2ccc3ncc(-c4cnn(C)c4)nc3n2)c1 .
Result: 0.724

Request: Same again, this time with COc1cc(OC)c(F)c(N(CCN(C2COC2)C2COC2)c2ccc3ncc(-c4cnn(C)c4)nc3n2)c1
Result: 3.89

Request: Input CNC(=O)c1cc(F)cc(N(Cc2ncc[nH]2)c2ccc3ncc(-c4cnn(C)c4)nc3n2)c1
Result: 1.91

Request: Please answer likewise for COc1cc(OC)c(F)c(N(Cc2nc(C)c[nH]2)c2ccc3ncc(-c4cnn(C)c4)nc3n2)c1
Result: 1.48

The values you see were collected from patent US9309242B2.
